TARGET SYSTEM: T1, recombinant human TNFR1 extracellular domain (ECD), biotinylated via C-terminal Avi-tag, construct SEQ. ID NO. P2 (human)
T1 chain: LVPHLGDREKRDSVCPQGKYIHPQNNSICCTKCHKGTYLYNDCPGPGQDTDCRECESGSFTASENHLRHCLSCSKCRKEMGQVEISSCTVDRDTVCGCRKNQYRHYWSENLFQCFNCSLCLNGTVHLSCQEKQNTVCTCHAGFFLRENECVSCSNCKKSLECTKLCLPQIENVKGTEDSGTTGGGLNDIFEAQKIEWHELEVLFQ
PROCEDURE SUMMARY: SPR (Cytiva 8K/8K+), peptide analyte over captured biotinylated human TNFR1 ECD
REPORTED PROPERTY: pKd
Give bare numbers, as −log10 of the molar value.

## Input Sample FYSWGNYWSYYGWCGEE (modifications not checked) [SEQ ID NO. 289 (Example No. 289) macrocyclic peptide] — what was its pKd?
## Output 8.13
